- system_tested: SKBr3 (Homo sapiens)
- method_summary: Antiproliferative activity against human SKBr3 cells
measure_name: log10(IC50) (log10 of the value in µM)
Plainly stated, the numbers are log10 of IC50 given in µM.

Guide cases for log10(IC50), answers given:
>>> df
                                   molecule  measurement
0  COc1cccc(-c2cc(C(=O)Nc3cc4ccc(O[C@@H]5OC(C)(C)[C@H](OC)[C@@H](O)[C@H]5O)c(C)c4oc3=O)ccc2OC)c1         0.88
1  Cc1c(OCCC2CCCCN2)ccc2cc(NC(=O)Nc3ccc(Cl)cc3)c(=O)oc12 (centres undefined)        -0.68
2  Cc1c(OC2CCN(C)CC2)ccc2cc(NC(=O)Nc3ccc(Cl)cc3)c(=O)oc12        -0.77

# input molecule: "CO[C@@H]1[C@@H](O)[C@@H](O)[C@H](Oc2ccc3cc(NC(=O)c4ccc(O)c(CC=C(C)C)c4)c(=O)oc3c2C)OC1(C)C" ; wanted: its log10(IC50) 1.04

Endpoint output: log10(IC50) of "Cc1ccc(NC(=O)Nc2cc3ccc(OC4CCN(C)CC4)c(C)c3oc2=O)cc1" . Value? -0.57

Hey, just so you know, these numbers are from ChEMBL document CHEMBL2321658.
